ASSAY_SYSTEM: Gamma-secretase (Homo sapiens) (UniProt Q96BI3+Q9NZ42+Q8WW43+P49768+Q92542+P49810)
ASSAY_EXPLANATION: Inhibition of human gamma secretase mediated notch 1 processing by Western blot analysis
Assay type: protein-complex assay
Calls of active or inactive are those of the source. No cut-off for these calls is given here.
Pick one: active, inactive

>  <COMPOUND>
CC(C)N(CCC(O)c1cccc(Oc2ccccc2)c1)Cc1ccccc1 (racemic)

>  <ANSWER_LABEL>
inactive

$$$$
>  <COMPOUND>
CCC(CC)(CN(Cc1ccc(F)c(F)c1)C(C)C)C(O)c1ccc2ccccc2c1 (racemic)

>  <ANSWER_LABEL>
inactive

$$$$
>  <COMPOUND>
CC(C)N(CCC(O)c1ccc2ccccc2c1)Cc1ccccc1 (racemic)

>  <ANSWER_LABEL>
inactive

$$$$
>  <COMPOUND>
CC(C)N(CCCC(O)c1ccc2ccccc2c1)Cc1ccccc1 (racemic)

>  <ANSWER_LABEL>
active

$$$$

I would be grateful if you could indicate the recorded call for CC(C)N(CCC(O)c1ccc2ccccc2c1)Cc1ccc(Cl)c(Cl)c1 (racemic) . inactive

I would be grateful if you could indicate the recorded call for CC(C)N(CCC(O)c1ccccc1)Cc1ccccc1 (racemic) . active

I would be grateful if you could indicate the recorded call for CC(C)N(CCC(O)c1ccc(OCc2ccccc2)cc1)Cc1ccccc1 (racemic) . inactive

I would be grateful if you could indicate the recorded call for CN(CCC(O)c1ccc2ccccc2c1)Cc1ccccc1 (racemic) . inactive

I would be grateful if you could indicate the recorded call for CC(C)N(CCC(O)c1ccc2ccccc2c1)c1ccccc1 (racemic) . active

I would be grateful if you could indicate the recorded call for CCC(CC)(CN(Cc1ccc(Cl)c(Cl)c1)C(C)C)C(O)c1ccc2ccccc2c1 (racemic) . inactive

I would be grateful if you could indicate the recorded call for CC(C)N(CCC(O)c1ccc(C(C)(C)C)cc1)Cc1ccccc1 (racemic) . active

I would be grateful if you could indicate the recorded call for CC(C)N(CCC(O)c1cc(C(F)(F)F)cc(C(F)(F)F)c1)Cc1ccccc1 (racemic) . active

I would be grateful if you could indicate the recorded call for OC(CCN1CCN(c2cccc(C(F)(F)F)c2)CC1)c1ccc2ccccc2c1 (racemic) . inactive

I would be grateful if you could indicate the recorded call for CC(C)N(CCC(O)c1cc(F)cc(Cl)c1)Cc1ccccc1 (racemic) . active

I would be grateful if you could indicate the recorded call for CC(C)N(Cc1ccccc1)CC(C)(C)C(O)c1ccc2ccccc2c1 (racemic) . inactive

I would be grateful if you could indicate the recorded call for CC(C)N(CCC(O)c1ccc2ccccc2c1)Cc1cc(F)cc(F)c1 (racemic) . active

I would be grateful if you could indicate the recorded call for CC(C)N(CCC(O)c1ccc(Oc2ccccc2)cc1)Cc1ccccc1 (racemic) . inactive

I would be grateful if you could indicate the recorded call for COC(CCN(Cc1ccccc1)C(C)C)c1ccc2ccccc2c1 (racemic) . inactive

I would be grateful if you could indicate the recorded call for CCC(CC)(CN(Cc1ccccc1)C(C)C)C(O)c1ccc2ccccc2c1 (racemic) . inactive

I would be grateful if you could indicate the recorded call for Cc1ccc(C(O)CCN(Cc2ccccc2)C(C)C)cc1F (racemic) . active

---

ASSAY_EXPLANATION: Permeability of the compound across apical to basolateral side
Format: ADME
MEASUREMENT_CONTEXT: not told; read-out: permeability
ENDPOINT: Papp A→B (×10⁻⁶ cm/s)
Numbers only, in ×10⁻⁶ cm/s.

Query: Papp A→B; subject: CC(C)N(CCC(O)c1ccc2ccccc2c1)Cc1ccccc1 (racemic) 18.4

---

ASSAY_SYSTEM: Gamma-secretase (Homo sapiens) (UniProt Q96BI3+Q9NZ42+Q8WW43+P49768+Q92542+P49810)
ASSAY_EXPLANATION: Inhibition of human gamma secretase mediated amyloid beta (1 to 40) production expressed in CHO cells at 100 uM using APP based Flag-C-100 as substrate after 4 hrs by ELISA
Format: cell-based
Class Fulfilled: inhibition at least 20%. Class Not fulfilled: inhibition below 20%.

Is inhibition at least 20%? Consider COC(CCN(Cc1ccccc1)C(C)C)c1ccc2ccccc2c1 (racemic) Fulfilled

Is inhibition at least 20%? Consider CCC(CC)(CN(Cc1ccc(F)c(F)c1)C(C)C)C(O)c1ccc2ccccc2c1 (racemic) Fulfilled

Is inhibition at least 20%? Consider CC(C)N(CCC(O)c1ccc2ccccc2c1)c1ccccc1 (racemic) Fulfilled

---

ASSAY_SYSTEM: Gamma-secretase (Homo sapiens) (UniProt Q96BI3+Q9NZ42+Q8WW43+P49768+Q92542+P49810)
ASSAY_EXPLANATION: Inhibition of human gamma secretase mediated amyloid beta (1 to 40) production expressed in CHO cells at 100 uM using APP based Flag-C-100 as substrate after 4 hrs by ELISA
Assay type: cell-based
ENDPOINT: inhibition (%)
Give bare numbers, in %.

Examples with their reported inhibition follow.
>  <COMPOUND>
CC(C)N(CCC(O)c1ccc2ccccc2c1)Cc1ccc(F)c(Cl)c1 (racemic)

>  <ASSAY_SYSTEM>
Gamma-secretase (Homo sapiens) (UniProt Q96BI3+Q9NZ42+Q8WW43+P49768+Q92542+P49810)

>  <inhibition / %>
38

$$$$
>  <COMPOUND>
OC(CCN(Cc1ccccc1)C1CC1)c1ccc2ccccc2c1 (racemic)

>  <ASSAY_SYSTEM>
Gamma-secretase (Homo sapiens) (UniProt Q96BI3+Q9NZ42+Q8WW43+P49768+Q92542+P49810)

>  <inhibition / %>
36

$$$$
>  <COMPOUND>
CC(C)N(CCC(O)c1ccc(C(C)(C)C)cc1)Cc1ccccc1 (racemic)

>  <ASSAY_SYSTEM>
Gamma-secretase (Homo sapiens) (UniProt Q96BI3+Q9NZ42+Q8WW43+P49768+Q92542+P49810)

>  <inhibition / %>
72

$$$$

Please state, for each entry, its recorded inhibition.
1. CC(C)N(CCCC(O)c1ccc2ccccc2c1)Cc1ccccc1 (racemic)
2. CC(C)N(Cc1ccccc1)CC(C)(C)C(O)c1ccc2ccccc2c1 (racemic)

[18, 72]

---

ASSAY_EXPLANATION: Metabolic stability in rat liver microsomes assessed as parent compound remaining after 60 mins
Assay type: ADME
MEASUREMENT_CONTEXT: read-out: Stability
ENDPOINT: remaining at 1 h
In your response, the unit should come after the numeric value.

Query: remaining at 1 h; subject: CC(C)N(CCC(O)c1ccc2ccccc2c1)Cc1ccccc1 (racemic) 0%

---

ASSAY_EXPLANATION: Plasma protein binding in human
Format: ADME, cell-free
MEASUREMENT_CONTEXT: read-out: PPB (converted)
ENDPOINT: fraction unbound

Query: fraction unbound; subject: CC(C)N(CCC(O)c1ccc2ccccc2c1)Cc1ccccc1 (racemic) 0.1

---

ASSAY_SYSTEM: Gamma-secretase (Homo sapiens) (UniProt Q96BI3+Q9NZ42+Q8WW43+P49768+Q92542+P49810)
ASSAY_EXPLANATION: Inhibition of human gamma secretase mediated notch 1 processing by Western blot analysis
Assay type: protein-complex assay
Activity calls are given as the source filed them. The calls are words filed in the database; no cut-off is given here.
Pick one: active, inactive

>  <COMPOUND>
COc1ccc(CN(CCC(O)c2ccc3ccccc3c2)C(C)C)cc1 (racemic)

>  <ANSWER_LABEL>
inactive

$$$$

I would be grateful if you could indicate the recorded call for OC(CCN1CCN(c2ccc(F)cc2)CC1)c1ccc2ccccc2c1 (racemic) . inactive

I would be grateful if you could indicate the recorded call for CC(C)N(CCC(O)c1cccc2ccccc12)Cc1ccccc1 (racemic) . inactive

---

ASSAY_EXPLANATION: Metabolic stability in human liver microsomes assessed as parent compound remaining after 60 mins
Type: ADME
MEASUREMENT_CONTEXT: read-out: Stability
ENDPOINT: remaining at 1 h (%)
Answers are plain numbers, in %.

Query: remaining at 1 h; subject: CC(C)N(CCC(O)c1ccc2ccccc2c1)Cc1ccccc1 (racemic) 1

---

ASSAY_SYSTEM: Gamma-secretase (Homo sapiens) (UniProt Q96BI3+Q9NZ42+Q8WW43+P49768+Q92542+P49810)
ASSAY_EXPLANATION: Inhibition of human gamma secretase mediated amyloid beta (1 to 40) production expressed in CHO cells at 100 uM using APP based Flag-C-100 as substrate after 4 hrs by ELISA
Assay type: cell-based
ENDPOINT: inhibition (%)
Give bare numbers, in %.

Examples with their reported inhibition follow.
>  <COMPOUND>
CCC(CC)(CN(Cc1ccc(Cl)c(Cl)c1)C(C)C)C(O)c1ccc2ccccc2c1 (racemic)

>  <ASSAY_SYSTEM>
Gamma-secretase (Homo sapiens) (UniProt Q96BI3+Q9NZ42+Q8WW43+P49768+Q92542+P49810)

>  <RECORDED_RESULT>
59

$$$$
>  <COMPOUND>
OC(CCN1CCN(Cc2ccccc2)CC1)c1ccc2ccccc2c1 (racemic)

>  <ASSAY_SYSTEM>
Gamma-secretase (Homo sapiens) (UniProt Q96BI3+Q9NZ42+Q8WW43+P49768+Q92542+P49810)

>  <RECORDED_RESULT>
15

$$$$
>  <COMPOUND>
OC(CCN1CCN(c2ccccc2)CC1)c1ccc2ccccc2c1 (racemic)

>  <ASSAY_SYSTEM>
Gamma-secretase (Homo sapiens) (UniProt Q96BI3+Q9NZ42+Q8WW43+P49768+Q92542+P49810)

>  <RECORDED_RESULT>
0

$$$$
>  <COMPOUND>
CC(C)N(CCC(O)c1cccc2ccccc12)Cc1ccccc1 (racemic)

>  <ASSAY_SYSTEM>
Gamma-secretase (Homo sapiens) (UniProt Q96BI3+Q9NZ42+Q8WW43+P49768+Q92542+P49810)

>  <RECORDED_RESULT>
46

$$$$
>  <COMPOUND>
CC(C)N(CCC(O)c1cccc(Oc2ccccc2)c1)Cc1ccccc1 (racemic)

>  <ASSAY_SYSTEM>
Gamma-secretase (Homo sapiens) (UniProt Q96BI3+Q9NZ42+Q8WW43+P49768+Q92542+P49810)

>  <RECORDED_RESULT>
30

$$$$

Please state, for each entry, its recorded inhibition.
1. CCN(CCC(O)c1ccc2ccccc2c1)Cc1ccccc1 (racemic)
2. CC(C)N(CCC(O)c1ccc(Oc2ccccc2)cc1)Cc1ccccc1 (racemic)
3. CC(C)N(CCC(O)c1cc2ccccc2o1)Cc1ccccc1 (racemic)
4. COc1ccc(CN(CCC(O)c2ccc3ccccc3c2)C(C)C)cc1 (racemic)
5. CC(C)N(CCC(O)c1ccc2ccccc2c1)Cc1cc(F)cc(F)c1 (racemic)
6. CC(C)N(CCC(O)c1ccc2ccccc2c1)Cc1cccc(C#N)c1 (racemic)
7. CC(C)N(CCC(O)c1ccc(OC2CCCCO2)cc1)Cc1ccccc1 (racemic)
8. CC(C)N(CCC(O)c1cc(F)cc(Cl)c1)Cc1ccccc1 (racemic)

[15, 24, 0, 55, 54, 7, 0, 30]

Please state, for each entry, its recorded inhibition.
1. OC(CCN(Cc1ccccc1)Cc1ccccc1)c1ccc2ccccc2c1 (racemic)
2. CC(C)N(CCC(O)c1ccc2c(c1)OCO2)Cc1ccccc1 (racemic)
3. CC(C)N(CCC(O)c1ccc2ccccc2c1)Cc1ccc(F)c(F)c1 (racemic)
4. CC(C)(C)N(CCC(O)c1ccc2ccccc2c1)Cc1ccccc1 (racemic)
5. OC(CCN1CCN(c2cccc(C(F)(F)F)c2)CC1)c1ccc2ccccc2c1 (racemic)
6. CC(C)N(CCC(O)c1ccc2ccccc2c1)Cc1ccccc1 (racemic)

1. 32
2. 0
3. 64
4. 0
5. 38
6. 81

Query: inhibition; subject: CC(C)N(CCC(O)c1ccc2ccccc2c1)Cc1ccc(Cl)c(Cl)c1 (racemic) 60
